Reported pKi, human A2BAR (Homo sapiens).
Scale: negative log10 of molar concentration, which is what pKi denotes.

compound | endpointResult
COc1cc(OC)cc(-c2nc(N)nc(-c3ccccc3)c2C#N)c1 [18t] | 7.35
N#Cc1c(-c2ccccc2)nc(N)nc1-c1cccc(O)c1 [18h] | 7.30
N#Cc1c(-c2ccccc2)nc(N)nc1-c1cccc(F)c1 [18e] | 6.73
N#Cc1c(-c2ccccc2)nc(N)nc1-c1cccc(Cl)c1 [18f] | 6.75
CNc1nc(-c2ccccc2)c(C#N)c(-c2cccc(F)c2)n1 [19j] | 6.45
CCNc1nc(-c2ccccc2)c(C#N)c(-c2ccc3c(c2)OCO3)n1 [19ap] | 6.66
N#Cc1c(-c2ccccc2)nc(Nc2ccccc2)nc1-c1ccco1 [19au] | 7.83
N#Cc1c(-c2cccc(Cl)c2)nc(N)nc1-c1cccc(Cl)c1 [18ah] | 7.13

I looked up CCNc1nc(-c2ccccc2)c(C#N)c(-c2cccc(C#N)c2)n1 [19t] and its pKi for human A2BAR (Homo sapiens) was 7.85

I looked up CNc1nc(-c2ccccc2)c(C#N)c(-c2ccccc2F)n1 [19d] and its pKi for human A2BAR (Homo sapiens) was 7.32

I looked up COc1cccc(-c2nc(N)nc(-c3ccccc3)c2C#N)c1 [18g] and its pKi for human A2BAR (Homo sapiens) was 7.51

I looked up N#Cc1c(-c2ccccc2)nc(N)nc1-c1ccc2c(c1)OCO2 [18u] and its pKi for human A2BAR (Homo sapiens) was 7.36

I looked up CNc1nc(-c2ccccc2)c(C#N)c(-c2cccc(C#N)c2)n1 [19s] and its pKi for human A2BAR (Homo sapiens) was 7.46

I looked up N#Cc1c(-c2ccccc2)nc(Nc2ccccc2)nc1-c1ccc2c(c1)OCO2 [19aq] and its pKi for human A2BAR (Homo sapiens) was 6.73

I looked up N#Cc1cccc(-c2nc(Nc3ccccc3)nc(-c3ccccc3)c2C#N)c1 [19u] and its pKi for human A2BAR (Homo sapiens) was 7.79

I looked up COc1cc(OC)cc(-c2nc(Nc3ccccc3)nc(-c3ccccc3)c2C#N)c1 [19an] and its pKi for human A2BAR (Homo sapiens) was 7.19
